// provenance: ChEMBL document CHEMBL1201862

GI50 values by entry
System: SNB-19
Assay: NCI tumour cell line growth inhibition, 48 h
Calls of active or inactive are those of the source. Rule as the data show it: active = GI50 up to about 1.1 µM and inactive = higher.
measured.endpoint: GI50

# compound, target.or.system, measured.endpoint, test.value
rows = [
    ("CC1CNC(c2ccc(COc3ccc(C4=NC(C)CN4)cc3)cc2)=N1 (stereo not drawn)", "SNB-19", "GI50", "50.1 µM (inactive)"),
    ("CC(O)CCCCC(O)CCC[C@H](O)[C@H]1CCC([C@H]2CCC([C@@H](O)CCCCCCCCCCCCC3=C[C@H](C)OC3=O)O2)O1 (stereo partly drawn)", "SNB-19", "GI50", "10.3 µM (inactive)"),
    ("CC(C)/C(Cl)=N/OC(=O)Nc1ccc(Cl)c(Cl)c1", "SNB-19", "GI50", "21.5 µM (inactive)"),
    ("COC(=O)C(=O)C(C(=O)Nc1cccc(C)c1C)C1Sc2ccccc2NC1=O (stereo not drawn)", "SNB-19", "GI50", "21.9 µM (inactive)"),
    ("Oc1cc(-c2ccccn2)nc2ccc(Cl)cc12", "SNB-19", "GI50", "> 100 µM (inactive)"),
    ("Cn1ncc(=S)[nH]c1=S", "SNB-19", "GI50", "> 100 µM (inactive)"),
    ("O=C1CS(=O)(=O)C(c2cccc(Oc3ccccc3)c2)N1c1cc(Cl)ccc1Cl (stereo not drawn)", "SNB-19", "GI50", "22.4 µM (inactive)"),
    ("CC1(C)C=[N+]([O-])C(C)(C)N1", "SNB-19", "GI50", "> 100 µM (inactive)"),
    ("CCOc1cc2oc(C)cc(=O)c2c(OC)c1/C=N/c1ccc(Cn2c(C)nc3ccccc32)cc1", "SNB-19", "GI50", "> 100 µM (inactive)"),
    ("C=C1C(=O)C23CC1C[C@H](OC(C)=O)C2C1(C)C(OC(C)=O)C[C@H](O)C(C)(C)[C@H]1C(O)[C@@H]3OC(C)=O (stereo partly drawn)", "SNB-19", "GI50", "21.5 µM (inactive)"),
    ("CCOC(OC1=C(C#N)CCC1)C(CC)[Se]c1ccccc1 (stereo not drawn)", "SNB-19", "GI50", "48.1 µM (inactive)"),
    ("CCCCCn1cnc2c1S(=O)(=O)N(C)C(NC(=O)c1ccccc1)=N2", "SNB-19", "GI50", "> 100 µM (inactive)"),
    ("C=C1CCC(CC[C@@H]2CC[C@]3(OC2)O[C@@]2(O)CC[C@]3(C)OC2(C)C)C(C)(C)[C@H]1C/C=C1/C(=O)OC[C@@H]1O (stereo partly drawn)", "SNB-19", "GI50", "2.89 µM (inactive)"),
    ("COc1ccc2cc3[n+](cc2c1OC)CCc1cc2c(cc1-3)OCO2 [BERBERINE CHLORIDE]", "SNB-19", "GI50", "8.38 µM (inactive)"),
    ("OCC1C2C=CC(O2)[C@H]1CO (stereo partly drawn)", "SNB-19", "GI50", "> 100 µM (inactive)"),
    ("CCCCCCCCCCCCCCCCOP(=O)(O)OCC(N)C(=O)O (stereo not drawn)", "SNB-19", "GI50", "16.4 µM (inactive)"),
    ("CCOC(=O)C1Oc2ccc([N+](=O)[O-])cc2C1(C)O (stereo not drawn)", "SNB-19", "GI50", "> 100 µM (inactive)"),
    ("Nc1nc(Cl)cc(NCC2(O)CC2)n1", "SNB-19", "GI50", "> 100 µM (inactive)"),
    ("C[C@]12CC[C@@H]3c4cc(I)c(O)cc4CC[C@H]3[C@@H]1CC[C@@H]2O", "SNB-19", "GI50", "7.33 µM (inactive)"),
    ("CC(C)CC(N)C(=O)NC(C(=O)NC(CCCNC(=N)N)C(=O)NC(CS)C(=O)NC1CSCC(C(=O)NC(Cc2ccccc2)C(=O)NC(C(=O)NC(CCCNC(=N)N)C(=O)O)C(C)C)NC(=O)C2CCCN2C(=O)C(CCCCN)NC(=O)C2CCCN2C(=O)C2CCCN2C(=O)C(Cc2ccc(O)cc2)NC(=O)C(CO)NC(=O)C(CCCCN)NC(=O)C(C(C)O)NC(=O)C(Cc2c[nH]c3ccccc23)NC1=O)C(C)C (stereo not drawn)", "SNB-19", "GI50", "> 25 µM (inactive)"),
    ("O=C(c1ccc(O)c([N+](=O)[O-])c1)c1ccc(O)c([N+](=O)[O-])c1", "SNB-19", "GI50", "> 100 µM (inactive)"),
    ("CN(CCc1ccccn1)c1ccc2c(c1)C(=O)c1ccccc1-2", "SNB-19", "GI50", "88.9 µM (inactive)"),
    ("C[C@H](C(=O)O)C(=O)NC(=O)N(Cc1ccccc1)N=O", "SNB-19", "GI50", "> 100 µM (inactive)"),
    ("Clc1ccc(OCCSCCCCCCCCCCSCCOc2ccc(Cl)cc2)cc1", "SNB-19", "GI50", "> 100 µM (inactive)"),
    ("COc1ccc(CC2Cc3ccccc3CC(=O)N2)cc1OC (stereo not drawn)", "SNB-19", "GI50", "> 100 µM (inactive)"),
    ("O=C(O)CCCSc1nc2ccccc2s1", "SNB-19", "GI50", "> 100 µM (inactive)"),
    ("Cc1cc(C)c(C2=NO[C@@H]3[C@H]2C(=O)C=C2N(Cc4ccccc4)CCO[C@@]23O)c(C)c1", "SNB-19", "GI50", "> 100 µM (inactive)"),
    ("CCN(CC)CCOC(=O)Cc1cccc2c(=O)cc(-c3ccccc3)oc12", "SNB-19", "GI50", "56.1 µM (inactive)"),
    ("C/C(=N\\NC(=O)c1ccccc1O)C1=CNc2ccccc2S1", "SNB-19", "GI50", "5.56 µM (inactive)"),
    ("CN(C)c1ccc(-c2[nH]c(=O)c3ccccc3[n+]2C)cc1", "SNB-19", "GI50", "> 100 µM (inactive)"),
    ("COc1cc(C2c3cc4c(cc3[C@@H](Nc3cccc([N+](=O)[O-])c3)C3COC(=O)[C@H]23)OCO4)cc(OC)c1O (stereo partly drawn)", "SNB-19", "GI50", "2.5 µM (inactive)"),
    ("Cc1ccccc1C(C#N)/C(=N/NC(N)=S)C(=O)Nc1c(C)cccc1C (stereo not drawn)", "SNB-19", "GI50", "> 100 µM (inactive)"),
    ("CC(=O)NC1=C(C)C(=O)c2c(nc3n2CCC3OC(=O)CCl)C1=O (stereo not drawn)", "SNB-19", "GI50", "16.6 µM (inactive)"),
    ("CC(C)(CN1CCCCC1)C(/C=C/c1ccc(Cl)cc1)=N\\NC(=O)N/N=C(/C=C/c1ccc(Cl)cc1)C(C)(C)CN1CCCCC1", "SNB-19", "GI50", "3.4 µM (inactive)"),
    ("COc1ccc(-c2oc3cc(OC)c(OC)c(OC)c3c(=O)c2OC)cc1OC", "SNB-19", "GI50", "> 100 µM (inactive)"),
    ("OC(c1ccc(F)cc1)(c1ccc(F)cc1)C1CC1", "SNB-19", "GI50", "42.8 µM (inactive)"),
    ("CSc1ncnc2c1cnn2Cc1cn(CCCCO)nn1", "SNB-19", "GI50", "> 100 µM (inactive)"),
    ("CCCCCc1cc2cc3c(c(O)c2c(=O)[nH]1)C1(CC3)C(=O)c2c(O)c3c(c(O)c2C1=O)C(=O)C(OC)=CC3=O (stereo not drawn)", "SNB-19", "GI50", "1.08 µM (active)"),
]
